Entry source: ChEMBL document CHEMBL3603773

- Tgt: Cholinesterase (Homo sapiens, UniProt P06276)
- Sequence (P06276 whole entry): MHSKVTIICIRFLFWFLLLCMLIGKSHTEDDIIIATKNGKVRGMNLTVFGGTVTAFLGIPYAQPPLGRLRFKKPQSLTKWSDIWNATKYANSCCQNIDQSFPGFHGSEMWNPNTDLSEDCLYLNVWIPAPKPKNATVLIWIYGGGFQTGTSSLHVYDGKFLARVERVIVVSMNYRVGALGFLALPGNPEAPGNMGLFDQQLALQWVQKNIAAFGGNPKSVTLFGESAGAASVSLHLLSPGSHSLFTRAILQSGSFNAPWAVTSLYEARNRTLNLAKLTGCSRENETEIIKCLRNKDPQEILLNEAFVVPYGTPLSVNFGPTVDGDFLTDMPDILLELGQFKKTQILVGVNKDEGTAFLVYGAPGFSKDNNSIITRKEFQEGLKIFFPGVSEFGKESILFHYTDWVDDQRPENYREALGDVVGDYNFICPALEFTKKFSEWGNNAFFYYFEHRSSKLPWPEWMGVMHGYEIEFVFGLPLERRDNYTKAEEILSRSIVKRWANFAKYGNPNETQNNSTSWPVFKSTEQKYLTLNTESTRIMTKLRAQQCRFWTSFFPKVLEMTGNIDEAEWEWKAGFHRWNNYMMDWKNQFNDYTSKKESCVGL
- Measurement Description: Inhibition of BChE (unknown origin) using butyrylthiocholine chloride as substrate at 0.5 mM preincubated for 30 mins before substrate addition measured after 30 mins by Ellman method relative to control
Property Measured: inhibition (%)
# output: bare number, implied unit %

CN(C)CCC[C@@]1(c2ccc(F)cc2)OCc2cc(-c3nnc(-c4ccccc4Cl)[nH]3)ccc21 = 79.6
COc1ccc(-c2nnc(-c3ccc4c(c3)CO[C@@]4(CCCN(C)C)c3ccc(F)cc3)[nH]2)cc1 = 81.2

Now consider a different compound.
Tell me measured inhibition for `CN(C)CCC[C@@]1(c2ccc(F)cc2)OCc2cc(-c3nnc(-c4ccccc4)[nH]3)ccc21` please.
81.8
